Entry source: ChEMBL document CHEMBL1671684

# System: Hepatitis C virus
# Test details: Antiviral activity against Hepatitis C virus subtype 1b expressing NS3 D168A mutant infected in HuH7 cells after 48 hrs by luciferase reporter assay
# Format: functional, organism-based, Hepacivirus hominis
# Condition details: genotype 1b, Huh-7, 48 h
pEC50: −log10 of the molar value.
# pEC50 values compiled below
Recorded metric: pEC50

[[record]]
compound = "CCC[C@H](NC(=O)[C@@H]1[C@H]2CCC[C@H]2CN1C(=O)[C@@H](NC(=O)[C@@H](NC(=O)c1cnccn1)C1CCCCC1)C(C)(C)C)C(=O)C(=O)NC1CC1"
reported_measurement = 7.34

[[record]]
compound = "CC(C)(C)NC(=O)N[C@H](C(=O)N1C[C@H]2[C@@H]([C@H]1C(=O)NC(CC1CCC1)C(=O)C(N)=O)C2(C)C)C(C)(C)C (some centres undefined)"
reported_measurement = 7.00

[[record]]
compound = "COc1ccc2c(O[C@@H]3C[C@H]4C(=O)N[C@]5(C(=O)NS(=O)(=O)C6CC6)C[C@H]5/C=C\\CCCCN(C)C(=O)[C@@H]4C3)cc(-c3nc(C(C)C)cs3)nc2c1C"
reported_measurement = 5.20

[[record]]
compound = "COc1ccc2c(O[C@@H]3C[C@H]4C(=O)N[C@]5(C(=O)O)C[C@H]5/C=C\\CCCCC[C@H](NC(=O)OC5CCCC5)C(=O)N4C3)cc(-c3csc(NC(C)C)n3)nc2c1"
reported_measurement = 6.52


----------
# System: Hepatitis C virus
# Test details: Ratio of EC50 for Hepatitis C virus subtype 1b expressing NS3 V36L mutant to EC50 for Hepatitis C virus subtype 1b expressing WT NS3 infected in HuH7 cells after 48 hrs by luciferase reporter assay
# Format: functional, Hepacivirus hominis, genotype 1b, Huh-7
# Ratio EC50 values compiled below
Recorded metric: Ratio EC50

[[record]]
compound = "CC(C)(C)NC(=O)N[C@H](C(=O)N1C[C@H]2[C@@H]([C@H]1C(=O)NC(CC1CCC1)C(=O)C(N)=O)C2(C)C)C(C)(C)C (some centres undefined) [BOCEPREVIR]"
system_under_test = "Hepatitis C virus"
reported_measurement = 1.6

[[record]]
compound = "COc1ccc2c(O[C@@H]3C[C@H]4C(=O)N[C@]5(C(=O)NS(=O)(=O)C6CC6)C[C@H]5/C=C\\CCCCN(C)C(=O)[C@@H]4C3)cc(-c3nc(C(C)C)cs3)nc2c1C [SIMEPREVIR]"
system_under_test = "Hepatitis C virus"
reported_measurement = 1.7

[[record]]
compound = "COc1ccc2c(O[C@@H]3C[C@H]4C(=O)N[C@]5(C(=O)O)C[C@H]5/C=C\\CCCCC[C@H](NC(=O)OC5CCCC5)C(=O)N4C3)cc(-c3csc(NC(C)C)n3)nc2c1 [CILUPREVIR]"
system_under_test = "Hepatitis C virus"
reported_measurement = 1

[[record]]
compound = "CCC[C@H](NC(=O)[C@@H]1[C@H]2CCC[C@H]2CN1C(=O)[C@@H](NC(=O)[C@@H](NC(=O)c1cnccn1)C1CCCCC1)C(C)(C)C)C(=O)C(=O)NC1CC1 [TELAPREVIR]"
system_under_test = "Hepatitis C virus"
reported_measurement = 3.1


----------
# EC50 values compiled below
# System: Hepatitis C virus
# Test details: Antiviral activity against Hepatitis C virus subtype 1b expressing NS3 Q80R and D168E mutant infected in HuH7 cells after 48 hrs by luciferase reporter assay
# Type: functional, organism-based, Hepacivirus hominis
# Condition details: genotype 1b, Huh-7, 48 h
Recorded metric: EC50 (nM)

[[record]]
molecule = "COc1ccc2c(O[C@@H]3C[C@H]4C(=O)N[C@]5(C(=O)NS(=O)(=O)C6CC6)C[C@H]5/C=C\\CCCCN(C)C(=O)[C@@H]4C3)cc(-c3nc(C(C)C)cs3)nc2c1C [SIMEPREVIR]"
units_label = "nM"
reported_measurement = 5900

[[record]]
molecule = "CC(C)(C)NC(=O)N[C@H](C(=O)N1C[C@H]2[C@@H]([C@H]1C(=O)NC(CC1CCC1)C(=O)C(N)=O)C2(C)C)C(C)(C)C (stereo partly drawn) [BOCEPREVIR]"
units_label = "nM"
reported_measurement = 62

[[record]]
molecule = "COc1ccc2c(O[C@@H]3C[C@H]4C(=O)N[C@]5(C(=O)O)C[C@H]5/C=C\\CCCCC[C@H](NC(=O)OC5CCCC5)C(=O)N4C3)cc(-c3csc(NC(C)C)n3)nc2c1 [CILUPREVIR]"
units_label = "nM"
reported_measurement = 87


----------
# Test system: Hepatitis C virus
# Test details: Ratio of EC50 for Hepatitis C virus subtype 1b expressing NS3 A156G mutant to EC50 for Hepatitis C virus subtype 1b expressing WT NS3 infected in HuH7 cells after 48 hrs by luciferase reporter assay
# Format: functional, Hepacivirus hominis, genotype 1b, Huh-7
Recorded metric: Ratio EC50

[[record]]
molecule = "COc1ccc2c(O[C@@H]3C[C@H]4C(=O)N[C@]5(C(=O)O)C[C@H]5/C=C\\CCCCC[C@H](NC(=O)OC5CCCC5)C(=O)N4C3)cc(-c3csc(NC(C)C)n3)nc2c1"
reported_measurement = 12

[[record]]
molecule = "CC(C)(C)NC(=O)N[C@H](C(=O)N1C[C@H]2[C@@H]([C@H]1C(=O)NC(CC1CCC1)C(=O)C(N)=O)C2(C)C)C(C)(C)C (some centres undefined)"
reported_measurement = 2.1

[[record]]
molecule = "COc1ccc2c(O[C@@H]3C[C@H]4C(=O)N[C@]5(C(=O)NS(=O)(=O)C6CC6)C[C@H]5/C=C\\CCCCN(C)C(=O)[C@@H]4C3)cc(-c3nc(C(C)C)cs3)nc2c1C"
reported_measurement = 16

[[record]]
molecule = "CCC[C@H](NC(=O)[C@@H]1[C@H]2CCC[C@H]2CN1C(=O)[C@@H](NC(=O)[C@@H](NC(=O)c1cnccn1)C1CCCCC1)C(C)(C)C)C(=O)C(=O)NC1CC1"
reported_measurement = 0.6


----------
# Test details: Inhibition of Hepatitis C virus subtype 6a NS3/4A protease
# Design: species or system Hepatitis C virus subtype 5a
Recorded metric: IC50

[[record]]
compound = "COc1ccc2c(O[C@@H]3C[C@H]4C(=O)N[C@]5(C(=O)NS(=O)(=O)C6CC6)C[C@H]5/C=C\\CCCCN(C)C(=O)[C@@H]4C3)cc(-c3nc(C(C)C)cs3)nc2c1C [SIMEPREVIR]"
reported_measurement = "< 13 nM"


----------
# Test system: Hepatitis C virus
# Test details: Antiviral activity against Hepatitis C virus subtype 1b expressing NS3 V170T mutant infected in HuH7 cells after 48 hrs by luciferase reporter assay
# Format: functional, organism-based, Hepacivirus hominis
# Condition details: genotype 1b, Huh-7, 48 h
# EC50 values compiled below
Recorded metric: EC50

[[record]]
molecule = "COc1ccc2c(O[C@@H]3C[C@H]4C(=O)N[C@]5(C(=O)O)C[C@H]5/C=C\\CCCCC[C@H](NC(=O)OC5CCCC5)C(=O)N4C3)cc(-c3csc(NC(C)C)n3)nc2c1"
reported_measurement = "4.8 nM"

[[record]]
molecule = "COc1ccc2c(O[C@@H]3C[C@H]4C(=O)N[C@]5(C(=O)NS(=O)(=O)C6CC6)C[C@H]5/C=C\\CCCCN(C)C(=O)[C@@H]4C3)cc(-c3nc(C(C)C)cs3)nc2c1C"
reported_measurement = "52 nM"

[[record]]
molecule = "CC(C)(C)NC(=O)N[C@H](C(=O)N1C[C@H]2[C@@H]([C@H]1C(=O)NC(CC1CCC1)C(=O)C(N)=O)C2(C)C)C(C)(C)C (stereo partly drawn)"
reported_measurement = "210 nM"


----------
# System: Hepatitis C virus
# Test details: Antiviral activity against Hepatitis C virus subtype 1b expressing WT NS3 infected in HuH7 cells after 48 hrs by luciferase reporter assay
# Assay type: functional, organism-based, Hepacivirus hominis
# Condition details: genotype 1b, Huh-7, 48 h
pEC50: −log10 of the molar value.
Recorded metric: pEC50

[[record]]
molecule = "CC(C)(C)NC(=O)N[C@H](C(=O)N1C[C@H]2[C@@H]([C@H]1C(=O)NC(CC1CCC1)C(=O)C(N)=O)C2(C)C)C(C)(C)C (some centres undefined)"
recorded_metric = "pEC50"
reported_measurement = 6.83

[[record]]
molecule = "COc1ccc2c(O[C@@H]3C[C@H]4C(=O)N[C@]5(C(=O)O)C[C@H]5/C=C\\CCCCC[C@H](NC(=O)OC5CCCC5)C(=O)N4C3)cc(-c3csc(NC(C)C)n3)nc2c1"
recorded_metric = "pEC50"
reported_measurement = 9.10

[[record]]
molecule = "COc1ccc2c(O[C@@H]3C[C@H]4C(=O)N[C@]5(C(=O)NS(=O)(=O)C6CC6)C[C@H]5/C=C\\CCCCN(C)C(=O)[C@@H]4C3)cc(-c3nc(C(C)C)cs3)nc2c1C"
recorded_metric = "pEC50"
reported_measurement = 7.96

[[record]]
molecule = "CCC[C@H](NC(=O)[C@@H]1[C@H]2CCC[C@H]2CN1C(=O)[C@@H](NC(=O)[C@@H](NC(=O)c1cnccn1)C1CCCCC1)C(C)(C)C)C(=O)C(=O)NC1CC1"
recorded_metric = "pEC50"
reported_measurement = 6.82

